Test system: SN12C renal
assay: NCI tumour cell line growth inhibition, 48 h
TGI values for the molecules below.

Examples with their reported TGI follow.
> print(dat)
                                   molecule    result
1              N.N.N.N.N#N.N#N.[Cl-].[Os+6]  > 100 µM
2         O=C(Nc1cc(Cl)c(I)c(Cl)c1)C(F)(F)F  > 100 µM
3  Cc1cc(C)c2c(=N)c3ccccc3n(CCCCCCCCn3c4ccccc4c(=N)c4c(C)cc(C)nc43)c2n1   2.94 µM

So, CC(C)(C)OC(=O)NC(CSCc1ccc(C(=O)c2ccccc2)cc1)C(=O)N1CCN(CCCCN2c3ccccc3Sc3cc(N=[N+]=[N-])ccc32)CC1 (stereo not given) ? Its TGI was > 100 µM

So, "COc1ccc(CCN2CCCn3c2nc2ccccc2c3=O)cc1" ? Its TGI was > 100 µM
